IC50 Protein Glycation values for the compounds below.
System: bovine serum albumin (BSA)
method.notes: Protein glycation inhibitory assay (BSA–fructose model)
Assay type: biochemical
condition.description: BSA–fructose model, 37 °C, six days, mean ± SD (n = 3)

Example entries begin here.
compound="N=C(N)NN [AG, aminoguanidine]" parameter="IC50 Protein Glycation" measured_value="71.09 ± 4.20 ^D µg/mL"
compound="O=c1c(O[C@@H]2O[C@H](CO)[C@H](O)[C@H](O)[C@H]2O)c(-c2ccc(O)c(O)c2)oc2cc(O)cc(O)c12 [HP, hyperoside]" parameter="IC50 Protein Glycation" measured_value="14.34 ± 1.15 ^A, B µg/mL"
compound="O=c1c(O[C@@H]2O[C@H](CO)[C@H](O)[C@H](O)[C@H]2O[C@@H]2OC[C@@H](O)[C@H](O)[C@H]2O)c(-c2ccc(O)c(O)c2)oc2cc(O)cc(O)c12 [QPH]" parameter="IC50 Protein Glycation" measured_value="15.78 ± 1.14 ^A, B µg/mL"

# IC50 Protein Glycation lookup, item Oc1cc(O)c2c(c1)O[C@H](c1ccc(O)c(O)c1)[C@H](O)C2 [ECA, (–)-epicatechin] 8.79 ± 0.13 ^A, B µg/mL
